- System: full length human vWF (SEQ ID NO 7)
- assay.details: dot blot KD determination and extent of binding, full length human vWF
- study.conditions: Phase 3 modification; extent of aptamer binding at 100 nM full length human vWF
Oligonucleotides are written 5' to 3', each unit as a sugar letter and its base; * is a phosphorothioate linkage, no mark a phosphodiester; rarer units and linkages stand in square brackets, end groups in braces. Plain capitals give the bases only. [invdT] = inverted (3'-3') thymidine; d = 2'-deoxy (DNA); m = 2'-O-methyl
The entries below are paired with their reported % binding @ 100 nM vWF.
Report the value in % with no unit label.

substance	unit	% binding @ 100 nM vWF
ARC1362: ARC1361 with single phosphorothioate phosphate backbone modification (mGmCmGmU*dGdCdAmGmUmGmCmCmUmUmCmGmGmCdCmGdTmGdCdGdGdTmGmCdCmUdCdCmGmUdCmAmCmGmC[invdT])	%	34.3
ARC1365: ARC1361 with single phosphorothioate phosphate backbone modification (mGmCmGmUdGdCdA*mGmUmGmCmCmUmUmCmGmGmCdCmGdTmGdCdGdGdTmGmCdCmUdCdCmGmUdCmAmCmGmC[invdT]; aptamer)	%	35.4
ARC1375: ARC1361 with single phosphorothioate phosphate backbone modification (mGmCmGmUdGdCdAmGmUmGmCmCmUmUmCmGmGmCdCmGdTmGdCdGdGdTmGmC*dCmUdCdCmGmUdCmAmCmGmC[invdT]; aptamer)	%	25.5

Entry ARC1376: ARC1361 with single phosphorothioate phosphate backbone modification (mGmCmGmUdGdCdAmGmUmGmCmCmUmUmCmGmGmCdCmGdTmGdCdGdGdTmGmCdC*mUdCdCmGmUdCmAmCmGmC[invdT]; aptamer) has what % binding @ 100 nM vWF?
31.3

----------
- Tested on: full length human vWF (SEQ ID NO 7)
- assay.details: dot blot KD determination and extent of binding, full length human vWF;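 also: dot blot binding of aptamers to full length human vWF across a protein titration, incubated 30 minutes at room temperature in 1x DPBS with BSA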
- study.conditions: DNA 2 minimers; 9 point protein titration; read-out: Full length human vWF KD
[invdT] = inverted (3'-3') thymidine
# pKd per entry
Conceptually, pKd converts a concentration in mol/L into minus its log10.

substance	quantity	assay.result
dGCGTGCAGTGCCT-[PEG]-AGGCCGTGCGGTGCCTCCGTCACGCC-3T (DNA GCGTGCAGTGCCTAGGCCGTGCGGTGCCTCCGTCACGCCT; chemistry not fully specified) [ARC1028, minimized DNA aptamer]	pKd	8.96
GGCGTGCAGTGCC-[PEG]-GGCCGTGCGGTGCCTCCGTCACGCC-3T (DNA GGCGTGCAGTGCCGGCCGTGCGGTGCCTCCGTCACGCCT; chemistry not fully specified) [ARC1029, minimized DNA aptamer]	pKd	8.85

Now look at this entry.
Which value of pKd has been reported for GGCGTGCAGTGCCTATTCTAGGCCGTGCGGTGCCTCCGTCACGCC-3T (DNA, [invdT] at 3' end, backbone not given here) [ARC 1027, minimized DNA aptamer] in the records?
9.10

// data source = patent US7998940B2
